Ref: PubChem BioAssay AID1745844

System: rodent lifetime carcinogenesis bioassay, tumor incidence TD50
TEST: carcinogenic potency in animals, long-term in vivo studies, CPDB compilation (AID 1745844)
REPORTED_CONDITIONS: mouse; strain B6C3F1; males; by gavage; site: liver; lesion: hepatocellular adenoma + hepatocellular carcinoma + neoplastic nodule; dosed 103 weeks; study length 104 weeks
Listed compounds paired with reported TD50
Write the answer as a number in mg/kg/day, unit excluded.

COMPOUND: Oc1ccc(O)cc1
VALUE_UNITS: mg/kg/day
TD50: 383
--
COMPOUND: CN(C)c1ccccc1
VALUE_UNITS: mg/kg/day
TD50: 216

TD50 in this record for O=P(O)(O)O : 2950

TD50 in this record for CC(I)C1OCC(CO)O1 (stereo unspecified) : 1100

TD50 in this record for C=CC1CC=CCC1 (stereo unspecified) : 1270

TD50 in this record for ClC(Cl)C(Cl)(Cl)Cl : 107

TD50 in this record for S=[Se] : 202

TD50 in this record for Nc1ccc(O)c(N)c1 : 164

TD50 in this record for O=CCC=O : 230

TD50 in this record for CCCCC(CC)COP(=O)(OCC(CC)CCCC)OCC(CC)CCCC (stereo unspecified) : 9000

TD50 in this record for CN(C)CCC(c1ccc(Cl)cc1)c1ccccn1 (stereo unspecified) : 101

TD50 in this record for CC1=CC(=O)CC(C)(C)C1 : 573

TD50 in this record for OCc1ccccc1 : 588

TD50 in this record for ClCC(Cl)(Cl)Cl : 124

TD50 in this record for c1ccc2occc2c1 : 21.3

TD50 in this record for COC(N)=O : 5080

TD50 in this record for S=c1[nH]c2ccccc2s1 : 3700

TD50 in this record for O=Cc1ccco1 : 135

TD50 in this record for CCCN(CCC)S(=O)(=O)c1ccc(C(=O)O)cc1 : 731

TD50 in this record for c1cc(OCC2CO2)cc(OCC2CO2)c1 (stereo unspecified) : 84.7

TD50 in this record for CC(=O)OC1CC(C)OC(C)O1 (stereo unspecified) : 1180

###

Test system: rodent lifetime carcinogenesis bioassay, tumor incidence TD50
TEST: carcinogenic potency in animals, long-term in vivo studies, CPDB compilation (AID 1745844)
REPORTED_CONDITIONS: rat; strain Fischer 344; females; in drinking water; site: liver; lesion: hepatocellular carcinoma; dosed 104 weeks; study length 128 weeks
OBSERVATION_TYPE: TD50 (mg/kg/day)
Write the answer as a number in mg/kg/day, unit excluded.

TD50 in this record for O=NO : 1550

###

System: rodent lifetime carcinogenesis bioassay, tumor incidence TD50
TEST: carcinogenic potency in animals, long-term in vivo studies, CPDB compilation (AID 1745844)
REPORTED_CONDITIONS: rat; strain Fischer 344; males; in feed; site: all sites; lesion: lymphoma; dosed 78 weeks; study length 104 weeks
OBSERVATION_TYPE: TD50 (mg/kg/day)
Write the answer as a number in mg/kg/day, unit excluded.

TD50 in this record for Nc1ccc(S(=O)(=O)c2ccc(N)cc2)cc1 : 50.1

###

System: rodent lifetime carcinogenesis bioassay, tumor incidence TD50
TEST: carcinogenic potency in animals, long-term in vivo studies, CPDB compilation (AID 1745844)
REPORTED_CONDITIONS: mouse; strain Swiss; males; in drinking water; site: liver; lesion: hepatocellular carcinoma; dosed 52 weeks; study length 100 weeks
OBSERVATION_TYPE: TD50 (mg/kg/day)
Write the answer as a number in mg/kg/day, unit excluded.

With rodent lifetime carcinogenesis bioassay, tumor incidence TD50 as the test system, O=NN1CCN(N=O)CC1 showed TD50 of 51.9

###

Listed molecules paired with reported TD50
Test system: rodent lifetime carcinogenesis bioassay, tumor incidence TD50
TEST: carcinogenic potency in animals, long-term in vivo studies, CPDB compilation (AID 1745844)
REPORTED_CONDITIONS: mouse; strain B6C3F1; females; in feed; site: liver; lesion: hepatocellular adenoma + hepatocellular carcinoma + neoplastic nodule; dosed 78 weeks; study length 95 weeks
Write the answer as a number in mg/kg/day, unit excluded.

Some molecules with recorded TD50:
STRUCTURE_NOTATION: Nc1ccc(Cl)cc1N
VALUE_UNITS: mg/kg/day
TD50: 2240
//
STRUCTURE_NOTATION: O=[N+]([O-])c1ccc2nc[nH]c2c1
VALUE_UNITS: mg/kg/day
TD50: 354
//
STRUCTURE_NOTATION: CCn1c2ccccc2c2cc(N)ccc21
VALUE_UNITS: mg/kg/day
TD50: 33
//
STRUCTURE_NOTATION: c1ccc(NNc2ccccc2)cc1
VALUE_UNITS: mg/kg/day
TD50: 26
//
STRUCTURE_NOTATION: Nc1ccc(Cl)c(N)c1
VALUE_UNITS: mg/kg/day
TD50: 1230

TD50 in this record for [O-]/[N+](=N\O)c1ccccc1 : 413

TD50 in this record for CN(C)c1ccc(N=NS(=O)(=O)O)cc1 : 152

###

Tested on: rodent lifetime carcinogenesis bioassay, tumor incidence TD50
TEST: carcinogenic potency in animals, long-term in vivo studies, CPDB compilation (AID 1745844)
REPORTED_CONDITIONS: mouse; strain B6C3F1; males; by gavage; site: kidney; lesion: tubule adenoma + tubule carcinoma; dosed 104 weeks; study length 104 weeks
OBSERVATION_TYPE: TD50 (mg/kg/day)
Write the answer as a number in mg/kg/day, unit excluded.

TD50 in this record for Cc1cn([C@H]2C[C@H](N=[N+]=[N-])[C@@H](CO)O2)c(=O)[nH]c1=O : 929

###

System: rodent lifetime carcinogenesis bioassay, tumor incidence TD50
TEST: carcinogenic potency in animals, long-term in vivo studies, CPDB compilation (AID 1745844)
REPORTED_CONDITIONS: rat; strain Fischer 344; males; in feed; site: Zymbal's gland; lesion: squamous-cell carcinoma; dosed 78 weeks; study length 106 weeks
OBSERVATION_TYPE: TD50

TD50 in this record for c1ccc(NNc2ccccc2)cc1 : 38.5 mg/kg/day

###

Tested on: rodent lifetime carcinogenesis bioassay, tumor incidence TD50
TEST: carcinogenic potency in animals, long-term in vivo studies, CPDB compilation (AID 1745844)
REPORTED_CONDITIONS: mouse; strain B6C3F1; males; in feed; site: any site (literature study); lesion: several types; types named in the paper; dosed 100 weeks; study length 100 weeks
OBSERVATION_TYPE: TD50 (mg/kg/day)
Write the answer as a number in mg/kg/day, unit excluded.

TD50 in this record for N#CN : 909

###

System: rodent lifetime carcinogenesis bioassay, tumor incidence TD50
TEST: carcinogenic potency in animals, long-term in vivo studies, CPDB compilation (AID 1745844)
REPORTED_CONDITIONS: rat; strain Sprague-Dawley; males; in feed; site: urinary bladder; lesion: transitional-cell papilloma; dosed 75 weeks; study length 75 weeks
OBSERVATION_TYPE: TD50

TD50 in this record for COc1cc2c(cc1N)oc1ccccc12 : 164 mg/kg/day

###

System: rodent lifetime carcinogenesis bioassay, tumor incidence TD50
TEST: carcinogenic potency in animals, long-term in vivo studies, CPDB compilation (AID 1745844)
REPORTED_CONDITIONS: rat; strain ACI; males; by gavage; site: any site (literature study); lesion: several types; types named in the paper; dosed 103 weeks; study length 104 weeks
OBSERVATION_TYPE: TD50 (mg/kg/day)
Write the answer as a number in mg/kg/day, unit excluded.

TD50 in this record for ClC=C(Cl)Cl : 820

###

Test system: rodent lifetime carcinogenesis bioassay, tumor incidence TD50
TEST: carcinogenic potency in animals, long-term in vivo studies, CPDB compilation (AID 1745844)
REPORTED_CONDITIONS: mouse; strain B6C3F1; females; oral dosing; site: any site (literature study); lesion: several types; types named in the paper; dosed 68 weeks; study length 68 weeks
OBSERVATION_TYPE: TD50 (mg/kg/day)
Write the answer as a number in mg/kg/day, unit excluded.

With rodent lifetime carcinogenesis bioassay, tumor incidence TD50 as the test system, CCOC(N)=O showed TD50 of 13.7

###

Test system: rodent lifetime carcinogenesis bioassay, tumor incidence TD50
TEST: carcinogenic potency in animals, long-term in vivo studies, CPDB compilation (AID 1745844)
REPORTED_CONDITIONS: mouse; strain ASH-CS1; females; in feed; site: lung; lesion: adenoma; dosed 80 weeks; study length 82 weeks
Active and inactive are the calls of the source. The rule behind the calls is not given here.
OBSERVATION_TYPE: TD50

TD50 in this record for O=S(=O)(O)NC1CCCCC1 : 228000 mg/kg/day (inactive)

###

Tested on: rodent lifetime carcinogenesis bioassay, tumor incidence TD50
TEST: carcinogenic potency in animals, long-term in vivo studies, CPDB compilation (AID 1745844)
REPORTED_CONDITIONS: rat; strain Fischer 344; females; in drinking water; site: palate + tongue; lesion: squamous-cell carcinoma + squamous-cell papilloma; dosed 96 weeks; study length 97 weeks
OBSERVATION_TYPE: TD50

TD50 in this record for COc1cc(-c2ccc(N=Nc3c(S(=O)(=O)O)cc4cc(S(=O)(=O)O)cc(N)c4c3O)c(OC)c2)ccc1N=Nc1c(S(=O)(=O)O)cc2cc(S(=O)(=O)O)cc(N)c2c1O : 81 mg/kg/day
